TARGET_DESC: Ribonucleoside-diphosphate reductase RR1 (Homo sapiens, UniProt P23921+P31350+Q7LG56)
Sequence (P23921 whole entry): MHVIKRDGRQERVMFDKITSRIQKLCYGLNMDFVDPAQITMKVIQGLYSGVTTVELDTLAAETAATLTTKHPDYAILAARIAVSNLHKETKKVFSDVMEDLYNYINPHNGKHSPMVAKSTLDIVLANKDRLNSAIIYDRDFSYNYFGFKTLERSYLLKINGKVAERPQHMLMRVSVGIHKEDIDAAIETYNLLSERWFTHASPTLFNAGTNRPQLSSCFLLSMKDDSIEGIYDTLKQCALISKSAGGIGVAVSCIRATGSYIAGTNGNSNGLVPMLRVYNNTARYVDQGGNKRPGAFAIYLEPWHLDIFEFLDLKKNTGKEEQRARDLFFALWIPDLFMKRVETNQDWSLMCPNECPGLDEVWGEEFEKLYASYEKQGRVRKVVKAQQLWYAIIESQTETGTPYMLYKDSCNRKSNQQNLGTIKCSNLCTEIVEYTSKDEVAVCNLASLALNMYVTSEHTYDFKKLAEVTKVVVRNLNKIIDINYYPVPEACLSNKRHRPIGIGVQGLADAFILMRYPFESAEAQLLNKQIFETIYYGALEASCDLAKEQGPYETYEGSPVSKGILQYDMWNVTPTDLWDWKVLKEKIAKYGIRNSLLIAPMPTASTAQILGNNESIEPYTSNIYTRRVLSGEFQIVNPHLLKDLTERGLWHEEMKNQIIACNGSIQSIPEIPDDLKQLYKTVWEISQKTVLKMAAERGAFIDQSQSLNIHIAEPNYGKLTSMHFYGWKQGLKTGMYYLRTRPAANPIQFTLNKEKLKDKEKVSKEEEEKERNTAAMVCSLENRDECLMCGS
Sequence (Q7LG56 whole entry): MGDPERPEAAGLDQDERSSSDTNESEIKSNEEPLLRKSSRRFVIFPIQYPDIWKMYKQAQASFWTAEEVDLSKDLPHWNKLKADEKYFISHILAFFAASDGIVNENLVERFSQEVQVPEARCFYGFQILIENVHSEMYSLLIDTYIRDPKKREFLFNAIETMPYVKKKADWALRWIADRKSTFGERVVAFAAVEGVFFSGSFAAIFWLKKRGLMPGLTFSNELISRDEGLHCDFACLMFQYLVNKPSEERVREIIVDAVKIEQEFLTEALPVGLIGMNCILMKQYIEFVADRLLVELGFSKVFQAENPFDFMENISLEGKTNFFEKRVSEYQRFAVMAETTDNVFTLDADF
Sequence (P31350 whole entry): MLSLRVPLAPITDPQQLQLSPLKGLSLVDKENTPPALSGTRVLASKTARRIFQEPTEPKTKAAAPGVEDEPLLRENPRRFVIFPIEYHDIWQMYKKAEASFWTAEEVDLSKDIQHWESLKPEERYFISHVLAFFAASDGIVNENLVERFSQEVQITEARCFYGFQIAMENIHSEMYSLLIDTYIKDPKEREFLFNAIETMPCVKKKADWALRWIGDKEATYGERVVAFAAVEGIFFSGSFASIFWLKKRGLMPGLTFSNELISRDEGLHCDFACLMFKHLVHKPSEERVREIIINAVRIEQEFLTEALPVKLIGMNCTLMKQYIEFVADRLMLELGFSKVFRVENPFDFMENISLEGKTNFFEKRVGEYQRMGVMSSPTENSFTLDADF
ASSAY_NAME: Inhibition of mammalian ribonucleotide reductase in a standard dTTP-dependent GDP reductase assay
Format: protein-complex assay
PARAMETER: pIC50
A value of pIC50 is the negative decimal logarithm of a concentration given in moles per litre.

Ask | Please give the measured pIC50 for this substance: `Ac-FTLDADF-OH`
Reply | 4.88
